# measurementDescription: physchem
# protocolConditions: octanol/water
# Description: Partition coefficient (logP)
Response key: fulfilled means logP >= 4; not fulfilled means logP < 4.

Observe how each entry below is paired with its result.
compound=CCCCCOC(=O)c1ccc(O)c(O)c1 group="not fulfilled"
compound="CCCCCCCCCOC(=O)c1ccc(O)c(O)c1 [NONYL 3,4-DIHYDROXYBENZOATE]" group=fulfilled
compound=CCCCCCCCCCCCOC(=O)c1cc(O)cc(O)c1O group=fulfilled
compound="CCCCCCCC(C)OC(=O)c1ccc(O)c(O)c1 (stereo not given)" group=fulfilled
compound=CCCCCCCCCCCOC(=O)c1ccc(O)c(O)c1 group=fulfilled
compound="O=C(OC1CCC2CCCCC2C1)c1ccc(O)c(O)c1 (stereo not given)" group="not fulfilled"

hey, is logP for this one >= 4? CCCCCCC(CC)OC(=O)c1ccc(O)c(O)c1 (stereo not given) fulfilled

hey, is logP for this one >= 4? CCCCCC/C=C/COC(=O)c1ccc(O)c(O)c1 fulfilled

hey, is logP for this one >= 4? CC1(C)C2CCC1(C)C(OC(=O)c1ccc(O)c(O)c1)C2 (stereo not given) not fulfilled

hey, is logP for this one >= 4? CCCCCCCCOC(=O)c1cc(O)cc(O)c1O not fulfilled

hey, is logP for this one >= 4? CCCCCC/C=C\COC(=O)c1ccc(O)c(O)c1 fulfilled

hey, is logP for this one >= 4? CC(C)=CCC/C(C)=C\COC(=O)c1ccc(O)c(O)c1 not fulfilled

hey, is logP for this one >= 4? CCCCCCCOC(=O)c1cc(O)cc(O)c1O not fulfilled

hey, is logP for this one >= 4? CCCCOC(=O)c1ccc(O)c(O)c1 not fulfilled

hey, is logP for this one >= 4? CCCCCCCCCCCCCOC(=O)c1cc(O)cc(O)c1O fulfilled

hey, is logP for this one >= 4? CCCCCCCCCCCOC(=O)c1cc(O)cc(O)c1O fulfilled

hey, is logP for this one >= 4? CCCCCCOC(=O)c1ccc(O)c(O)c1 [HEXYL 3,4-DIHYDROXYBENZOATE] not fulfilled

hey, is logP for this one >= 4? CCCCCCCCCCOC(=O)c1cc(O)cc(O)c1O fulfilled

hey, is logP for this one >= 4? CC(C)=CCC/C(C)=C/COC(=O)c1ccc(O)c(O)c1 not fulfilled

hey, is logP for this one >= 4? CCCCCCCOC(=O)c1ccc(O)c(O)c1 [HEPTYL 3,4-DIHYDROXYBENZOATE] not fulfilled

hey, is logP for this one >= 4? O=C(OCC1CCCCC1)c1ccc(O)c(O)c1 not fulfilled

hey, is logP for this one >= 4? CCCOC(=O)c1ccc(O)c(O)c1 not fulfilled

---

Quick reference for MIC among some molecules
# System: Saccharomyces cerevisiae
# measurementDescription: microbe, parasite or virus in culture
# protocolConditions: ATCC 7754
# Description: Antifungal activity against Saccharomyces cerevisiae ATCC 7754
Report as a plain number; the unit µg/mL is understood.

Illustrative cases are given below, each with its answer.
molecule="CCCCCCCOC(=O)c1ccc(O)c(O)c1 [HEPTYL 3,4-DIHYDROXYBENZOATE]" quantitykind=MIC readoutvalue=12.5
molecule="CCCCCCC(CC)OC(=O)c1ccc(O)c(O)c1 (stereo unspecified)" quantitykind=MIC readoutvalue=12.5

Given the entry CCCCCCOC(=O)c1ccc(O)c(O)c1 [HEXYL 3,4-DIHYDROXYBENZOATE] , report its measured MIC. 25

Given the entry CC1CCC(C(C)C)C(OC(=O)c2ccc(O)c(O)c2)C1 (stereo unspecified) , report its measured MIC. 12.5

Given the entry O=C(OC1CCC2CCCCC2C1)c1ccc(O)c(O)c1 (stereo unspecified) , report its measured MIC. 25

Given the entry CC(C)=CCC/C(C)=C/COC(=O)c1ccc(O)c(O)c1 , report its measured MIC. 12.5

Given the entry CCCCCCCOC(=O)c1cc(O)cc(O)c1O , report its measured MIC. 200

Given the entry CCCCCCCCCCCOC(=O)c1cc(O)cc(O)c1O , report its measured MIC. 25

Given the entry CCCCOC(=O)c1ccc(O)c(O)c1 , report its measured MIC. 200

Given the entry CCCCCCCCOC(=O)c1cc(O)cc(O)c1O , report its measured MIC. 50

Given the entry CCCCCCCC(C)OC(=O)c1ccc(O)c(O)c1 (stereo unspecified) , report its measured MIC. 25

Given the entry CCCCCCCCCOC(=O)c1ccc(O)c(O)c1 [NONYL 3,4-DIHYDROXYBENZOATE] , report its measured MIC. 6.25

Given the entry CCCCCCCCCOC(=O)c1cc(O)cc(O)c1O , report its measured MIC. 25

Given the entry CCCCCOC(=O)c1ccc(O)c(O)c1 , report its measured MIC. 100

---

# measurementDescription: physchem
# protocolConditions: octanol/water
Quick reference for logP among some molecules

Illustrative cases are given below, each with its answer.
molecule="CCCCCCCCOC(=O)c1ccc(O)c(O)c1 [OCTYL 3,4-DIHYDROXYBENZOATE]" readoutvalue=3.99
molecule=CCCCCCCCCOC(=O)c1cc(O)cc(O)c1O readoutvalue=4

Moving on to the next molecule.
Given the entry CC1CCC(C(C)C)C(OC(=O)c2ccc(O)c(O)c2)C1 (stereo not drawn) , report its measured logP. 4.1

---

# Test system: Saccharomyces cerevisiae
# measurementDescription: microbe, parasite or virus in culture
# protocolConditions: ATCC 7754
quantityKind: MIC (µg/mL)
Report as a plain number; the unit µg/mL is understood.

Illustrative cases are given below, each with its answer.
compound=CCCCCC/C=C\COC(=O)c1ccc(O)c(O)c1 measureunit=µg/mL readoutvalue=6.25
compound=CCCCCCCCCCOC(=O)c1cc(O)cc(O)c1O measureunit=µg/mL readoutvalue=12.5
compound="Clc1ccc(COC(Cn2ccnc2)c2ccc(Cl)cc2Cl)c(Cl)c1 (configuration not stated)" measureunit=µg/mL readoutvalue=6.25
compound="CC1(C)C2CCC1(C)C(OC(=O)c1ccc(O)c(O)c1)C2 (configuration not stated)" measureunit=µg/mL readoutvalue=50
compound=CCCCCC/C=C/COC(=O)c1ccc(O)c(O)c1 measureunit=µg/mL readoutvalue=6.25
compound="CCCCCCCCOC(=O)c1ccc(O)c(O)c1 [OCTYL 3,4-DIHYDROXYBENZOATE]" measureunit=µg/mL readoutvalue=6.25
compound=O=C(OCC1CCCCC1)c1ccc(O)c(O)c1 measureunit=µg/mL readoutvalue=50

Moving on to the next compound.
Given the entry CC(C)=CCC/C(C)=C\COC(=O)c1ccc(O)c(O)c1 , report its measured MIC. 12.5
